system: CD2F1 mice, L1210 leukemia ip, survival T/C; assay: NCI In Vivo Anticancer Drug Screen. Data for tumor model L1210 Leukemia (intraperitoneal) in CD2F1 (CDF1) mice; details: endpoint: mean survival time; dose: 400.0 mg/kg/injection; schedule: Q01DX001 (ip); vehicle: saline with Tween-80; higher = longer survival
Inconclusive results and toxic doses are left out.
recorded_metric: T/C

>>> print(df.to_string())
                                    compound         obs_value
 0            CNC(=O)Oc1cccc(NC(=O)OCCCCl)c1  105 % of control
 1    COCC1C2CCC(C2)C1COC (stereo not given)   97 % of control
 2                   O=C(Cc1ccccn1)Cc1ccccn1  106 % of control
 3           Nc1ccc(NC(=O)COc2cccc(Cl)c2)cc1   95 % of control
 4          Cc1nc(N)[nH]c(=O)c1CCCNCc1ccncc1   90 % of control
 5  NCC(O)O.NCC(O)O.NCC(O)O.NCC(O)O.[Mo].[Mo]  104 % of control
 6  NC(=O)C1C(c2ccccc2)=C(c2ccccc2)c2ccccc21 (stereo not given)   87 % of control
 7  Nc1ncnc2nc(-c3cccc(CNC(=O)c4ccccc4S(=O)(=O)F)c3)[nH]c12   87 % of control
 8  OC1C=C(c2ccccc2)C(c2ccccc2)C(c2ccccc2)C1 (stereo not given)  101 % of control
 9    Nc1cccc(CC(=O)Nc2cccc(S(=O)(=O)F)c2)c1   90 % of control
10  CCOC(=O)c1csc(-c2csc(CCNC(=O)c3ccccc3)n2)n1  101 % of control
11  COC(=O)C1CCC2C3CC=C4CC(O)CCC4(C)C3CCC12C (stereo not given)   93 % of control
12  CC1CC(C)(C)N=C(C2(c3ccccc3)CCC2)O1 (stereo not given)   98 % of control
13                         Nc1ccc(C(=O)O)cc1  101 % of control
14                   CC(C)(C)OC(=O)Cc1ccccc1   94 % of control
15        CCOc1ccccc1Nc1cc(=O)[nH]c(=O)[nH]1   92 % of control
16  O=C(O)c1ccc([N+](=O)[O-])cc1[N+](=O)[O-]   91 % of control
17                         C[n+]1csc2ccccc21  104 % of control
18             CC1(C)CCC2(CC1)CC(=O)OC(=O)C2   92 % of control
19           C(=N\Nc1ccccc1)/c1ccc2c(c1)OCO2   95 % of control
20  COC(=O)C1(C)CCCC2(C)C3CCC(C)(CCO)CC3C(O)CC12 (stereo not given)  105 % of control
21               CCN(CC)n1c(=O)[nH]n(CC)c1=O  100 % of control
22  CC(=O)Nc1nc(C)c(CC/C=C/c2ccc([N+](=O)[O-])cc2)c(Cl)n1   89 % of control
23  CCOc1cccc(Cc2cn(Cc3cccc(NC(=O)Nc4ccc(S(=O)(=O)F)cc4)c3)c(=O)[nH]c2=O)c1   86 % of control
24  Fc1c(F)c(F)c(Oc2c(F)c(F)c(Cl)c(F)c2F)c(F)c1F   88 % of control
